tested on: Monocyte; assay: Inhibition of PGE2 production in LPS-stimulated human primary monocytes by ELISA; format: functional
measured_property: pIC50
Expect pIC50 as a plain number equal to -log10 of the molar concentration.

Q: Which pIC50 value is on record for CCc1oc(=O)c(Cc2c(O)c(CC=C(C)C)c(O)c(C(C)=O)c2O)c(O)c1C ?
Result: 4.73

* * *

test: Inhibition of TNFalpha activated NF-kappaB dependent transactivation of HIV-1 LTR Luc in 5.1 cells; format: cell-based; settings: Homo sapiens
measured_property: IC50 (µM)
Report the figure in µM without appending any unit label.

Q: Which IC50 value is on record for CCc1oc(=O)c(Cc2c(O)c(C)c(CC)oc2=O)c(O)c1C ?
Result: 8.7

Q: Which IC50 value is on record for CCc1oc(=O)c(Cc2c(O)c(CC=C(C)C)c(O)c(C(C)=O)c2O)c(O)c1C ?
Result: 5

* * *

system: Monocyte; assay: Inhibition of TNFalpha production in LPS-stimulated human primary monocytes by ELISA; format: functional
measured_property: pIC50
Expect pIC50 as a plain number equal to -log10 of the molar concentration.

Q: Which pIC50 value is on record for CCc1oc(=O)c(Cc2c(O)c(CC=C(C)C)c(O)c(C(C)=O)c2O)c(O)c1C ?
Result: 5.04

The reported numbers originate from ChEMBL document CHEMBL1142109.
